Recorded values, source ChEMBL document CHEMBL5523713.

# target_entity: von Hippel-Lindau disease tumor suppressor/Cytochrome P450 1B1 (Homo sapiens, UniProt Q16678+P40337)
# Sequence (Q16678 whole entry): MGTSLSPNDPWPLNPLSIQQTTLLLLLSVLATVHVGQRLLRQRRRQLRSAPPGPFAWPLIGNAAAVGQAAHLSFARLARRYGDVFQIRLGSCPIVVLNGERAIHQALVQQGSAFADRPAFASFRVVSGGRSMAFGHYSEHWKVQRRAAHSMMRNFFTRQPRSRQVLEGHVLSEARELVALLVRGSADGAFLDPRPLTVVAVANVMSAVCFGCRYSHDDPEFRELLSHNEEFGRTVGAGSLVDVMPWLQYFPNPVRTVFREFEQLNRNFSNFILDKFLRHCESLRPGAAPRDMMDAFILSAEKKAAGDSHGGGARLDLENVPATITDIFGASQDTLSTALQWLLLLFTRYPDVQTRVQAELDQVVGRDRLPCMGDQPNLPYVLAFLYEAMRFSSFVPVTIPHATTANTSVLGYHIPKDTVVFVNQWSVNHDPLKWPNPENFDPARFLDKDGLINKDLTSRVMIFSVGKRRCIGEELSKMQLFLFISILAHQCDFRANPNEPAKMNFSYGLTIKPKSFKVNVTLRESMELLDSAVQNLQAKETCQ
# Sequence (P40337 whole entry): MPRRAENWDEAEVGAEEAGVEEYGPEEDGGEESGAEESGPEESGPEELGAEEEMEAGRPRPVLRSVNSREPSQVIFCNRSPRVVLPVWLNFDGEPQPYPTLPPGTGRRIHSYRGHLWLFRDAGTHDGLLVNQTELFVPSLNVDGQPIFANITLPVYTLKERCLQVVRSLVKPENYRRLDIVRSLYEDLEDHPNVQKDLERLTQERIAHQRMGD
# experimental_protocol: PROTAC activity at VHL/CYP1B1 in human A549/Taxol cells assessed as degradation by measuring fold change in remaining CYP1B1 level at 1 nM incubated for 24 hrs by Western blotting analysis (reference value: 1)
# Type: ADME, cell-based
# run_conditions: 0.001 µM
measurement_kind: fold change (FC)
Lab note: jot down the number only; don't add units.

Q. Provide one value: measured fold change (FC) of `Cc1ncsc1-c1ccc([C@H](C)NC(=O)[C@@H]2C[C@@H](O)CN2C(=O)[C@@H](NC(=O)CCCCCCCCCCOc2ccccc2-c2csc(-c3csc(Nc4ccc(Cl)cc4)n3)n2)C(C)(C)C)cc1`
A. 1.7

Q. Provide one value: measured fold change (FC) of `Cc1ncsc1-c1ccc([C@H](C)NC(=O)[C@@H]2C[C@@H](O)CN2C(=O)[C@@H](NC(=O)CCCCCCCCOc2ccccc2-c2csc(-c3csc(Nc4ccc(Cl)cc4)n3)n2)C(C)(C)C)cc1`
A. 0.7

Q. Provide one value: measured fold change (FC) of `Cc1ncsc1-c1ccc([C@H](C)NC(=O)[C@@H]2C[C@@H](O)CN2C(=O)[C@@H](NC(=O)CCCCCCCOc2ccccc2-c2csc(-c3csc(Nc4ccc(Cl)cc4)n3)n2)C(C)(C)C)cc1`
A. 0.4

Q. Provide one value: measured fold change (FC) of `Cc1ncsc1-c1ccc([C@H](C)NC(=O)[C@@H]2C[C@@H](O)CN2C(=O)[C@@H](NC(=O)CCCCCCCCCCCOc2ccccc2-c2csc(-c3csc(Nc4ccc(Cl)cc4)n3)n2)C(C)(C)C)cc1`
A. 0.9

Q. Provide one value: measured fold change (FC) of `Cc1ncsc1-c1ccc([C@H](C)NC(=O)[C@@H]2C[C@@H](O)CN2C(=O)[C@@H](NC(=O)CCCCCCOc2ccccc2-c2csc(-c3csc(Nc4ccc(Cl)cc4)n3)n2)C(C)(C)C)cc1`
A. 0.5

* * *

# target_entity: von Hippel-Lindau disease tumor suppressor/Cytochrome P450 1B1 (Homo sapiens, UniProt Q16678+P40337)
# experimental_protocol: PROTAC activity at VHL/CYP1B1 in human A549/Taxol cells assessed as degradation by measuring fold change in remaining CYP1B1 level at 1000 nM incubated for 24 hrs by Western blotting analysis (reference value: 1)
# Assay type: ADME, cell-based
# run_conditions: 1 µM
measurement_kind: fold change (FC)
Lab note: jot down the number only; don't add units.

Q. Provide one value: measured fold change (FC) of `Cc1ncsc1-c1ccc([C@H](C)NC(=O)[C@@H]2C[C@@H](O)CN2C(=O)[C@@H](NC(=O)CCCCCCOc2ccccc2-c2csc(-c3csc(Nc4ccc(Cl)cc4)n3)n2)C(C)(C)C)cc1`
A. 0.6

Q. Provide one value: measured fold change (FC) of `Cc1ncsc1-c1ccc([C@H](C)NC(=O)[C@@H]2C[C@@H](O)CN2C(=O)[C@@H](NC(=O)CCCCCCCCCCCOc2ccccc2-c2csc(-c3csc(Nc4ccc(Cl)cc4)n3)n2)C(C)(C)C)cc1`
A. 2

Q. Provide one value: measured fold change (FC) of `Cc1ncsc1-c1ccc([C@H](C)NC(=O)[C@@H]2C[C@@H](O)CN2C(=O)[C@@H](NC(=O)CCCCCOc2ccccc2-c2csc(-c3csc(Nc4ccc(Cl)cc4)n3)n2)C(C)(C)C)cc1`
A. 1.5
